System: Hepatitis C virus
Experiment: Antiviral activity against Hepatitis C virus subtype 1b harboring protease D168A mutant by transient replicon assay
Type: functional, organism-based, Hepacivirus hominis
Conditions: genotype 1b
pEC50: −log10 of the molar value.
Threshold check on pEC50: at or above 7 gives YES, strictly below gives NO.

Input: Evaluate CCC[C@H](NC(=O)[C@@H]1[C@H]2CCC[C@H]2CN1C(=O)[C@@H](NC(=O)[C@@H](NC(=O)c1cnccn1)C1CCCCC1)C(C)(C)C)C(=O)C(=O)NC1CC1 [TELAPREVIR] : pEC50 at minimum 7?
Output: NO

Input: Evaluate COc1ccc2c(O[C@@H]3C[C@H]4C(=O)N[C@]5(C(=O)O)C[C@H]5/C=C\CCCCC[C@H](NC(=O)OC5CCCC5)C(=O)N4C3)cc(-c3csc(NC(C)C)n3)nc2c1 [CILUPREVIR] : pEC50 at minimum 7?
Output: NO

Input: Evaluate COc1ccc2c(O[C@@H]3C[C@H]4C(=O)N[C@]5(C(=O)NS(=O)(=O)C6CC6)C[C@H]5/C=C\CCCCC[C@H](NC(N)=O)C(=O)N4C3)cc(-c3nc(C(C)C)cs3)nc2c1C : pEC50 at minimum 7?
Output: NO

Input: Evaluate COc1ccc2c(O[C@@H]3C[C@H]4C(=O)N[C@]5(C(=O)NS(=O)(=O)C6CC6)C[C@H]5/C=C\CCCCC[C@H](NC(=O)N5CCC(c6ccccc6)CC5)C(=O)N4C3)cc(-c3nc(C(C)C)cs3)nc2c1C : pEC50 at minimum 7?
Output: NO

Input: Evaluate COc1ccc2c(O[C@@H]3C[C@H]4C(=O)N[C@]5(C(=O)NS(=O)(=O)C6CC6)C[C@H]5/C=C\CCCCC[C@H](NC(=O)N5CCS(=O)(=O)CC5)C(=O)N4C3)cc(-c3nc(C(C)C)cs3)nc2c1C : pEC50 at minimum 7?
Output: NO

Input: Evaluate COc1ccc2c(O[C@@H]3C[C@H]4C(=O)N[C@]5(C(=O)NS(=O)(=O)C6CC6)C[C@H]5/C=C\CCCCC[C@H](NC(=O)N5CCC(CC(=O)O)CC5)C(=O)N4C3)cc(-c3nc(C(C)C)cs3)nc2c1C : pEC50 at minimum 7?
Output: YES

Input: Evaluate COc1ccc2c(O[C@@H]3C[C@H]4C(=O)N[C@]5(C(=O)NS(=O)(=O)C6CC6)C[C@H]5/C=C\CCCCC[C@H](NC(=O)N5CCC(O)CC5)C(=O)N4C3)cc(-c3nc(C(C)C)cs3)nc2c1C : pEC50 at minimum 7?
Output: YES

Input: Evaluate CC(C)(C)OC(=O)N[C@H]1CCCCC/C=C\[C@@H]2C[C@@]2(C(=O)NS(=O)(=O)C2CC2)NC(=O)[C@@H]2C[C@@H](OC(=O)N3Cc4cccc(F)c4C3)CN2C1=O [DANOPREVIR] : pEC50 at minimum 7?
Output: YES

Input: Evaluate COc1ccc2c(O[C@@H]3C[C@H]4C(=O)N[C@]5(C(=O)NS(=O)(=O)C6CC6)C[C@H]5/C=C\CCCCC[C@H](NC(=O)N5CCC(C)(C)C5)C(=O)N4C3)cc(-c3nc(C(C)C)cs3)nc2c1C : pEC50 at minimum 7?
Output: YES

Input: Evaluate CCN(CC)C(=O)N[C@H]1CCCCC/C=C\[C@@H]2C[C@@]2(C(=O)NS(=O)(=O)C2CC2)NC(=O)[C@@H]2C[C@@H](Oc3cc(-c4nc(C(C)C)cs4)nc4c(C)c(OC)ccc34)CN2C1=O : pEC50 at minimum 7?
Output: YES

Input: Evaluate COc1ccc2c(O[C@@H]3C[C@H]4C(=O)N[C@]5(C(=O)NS(=O)(=O)C6CC6)C[C@H]5/C=C\CCCCC[C@H](NC(=O)N5CC(F)(F)C5)C(=O)N4C3)cc(-c3nc(C(C)C)cs3)nc2c1C : pEC50 at minimum 7?
Output: YES

Input: Evaluate COc1ccc2c(O[C@@H]3C[C@H]4C(=O)N[C@]5(C(=O)NS(=O)(=O)C6CC6)C[C@H]5/C=C\CCCCC[C@H](NC(=O)N(C)C)C(=O)N4C3)cc(-c3nc(C(C)C)cs3)nc2c1C : pEC50 at minimum 7?
Output: YES

Input: Evaluate COc1ccc2c(O[C@@H]3C[C@H]4C(=O)N[C@]5(C(=O)NS(=O)(=O)C6CC6)C[C@H]5/C=C\CCCCC[C@H](NC(=O)N5CCC(N6CCCC6)CC5)C(=O)N4C3)cc(-c3nc(C(C)C)cs3)nc2c1C : pEC50 at minimum 7?
Output: NO

Input: Evaluate COc1ccc2c(O[C@@H]3C[C@H]4C(=O)N[C@]5(C(=O)NS(=O)(=O)C6CC6)C[C@H]5/C=C\CCCCC[C@H](NC(=O)N5CCC(CO)CC5)C(=O)N4C3)cc(-c3nc(C(C)C)cs3)nc2c1C : pEC50 at minimum 7?
Output: YES

Input: Evaluate COc1ccc2c(O[C@@H]3C[C@H]4C(=O)N[C@]5(C(=O)NS(=O)(=O)C6CC6)C[C@H]5/C=C\CCCCC[C@H](NC(=O)N5CCN(C6CCCC6)CC5)C(=O)N4C3)cc(-c3nc(C(C)C)cs3)nc2c1C : pEC50 at minimum 7?
Output: NO

Input: Evaluate CCN(C)C(=O)N[C@H]1CCCCC/C=C\[C@@H]2C[C@@]2(C(=O)NS(=O)(=O)C2CC2)NC(=O)[C@@H]2C[C@@H](Oc3cc(-c4nc(C(C)C)cs4)nc4c(C)c(OC)ccc34)CN2C1=O : pEC50 at minimum 7?
Output: YES

###

Tested on: Hepatitis C virus
Test: Antiviral activity against Hepatitis C virus subtype 1a by stable replicon assay
Type: functional, organism-based, Hepacivirus hominis
measured-parameter: pEC50
To interpret pEC50, take it as minus log10 of a concentration measured in moles per litre.

Input: Returns the measured pEC50 for the input compound. Input: CCN(C(=O)N[C@H]1CCCCC/C=C\[C@@H]2C[C@@]2(C(=O)NS(=O)(=O)C2CC2)NC(=O)[C@@H]2C[C@@H](Oc3cc(-c4nc(C5CC5)cs4)nc4c(C)c(OC)ccc34)CN2C1=O)C(C)C
Output: 9.40

Input: Returns the measured pEC50 for the input compound. Input: COc1ccc2c(O[C@@H]3C[C@H]4C(=O)N[C@]5(C(=O)NS(=O)(=O)C6CC6)C[C@H]5/C=C\CCCCC[C@H](NC(=O)N5CCC5)C(=O)N4C3)cc(-c3nc(C(C)C)cs3)nc2c1C
Output: 9.10

Input: Returns the measured pEC50 for the input compound. Input: CCN(C)C(=O)N[C@H]1CCCCC/C=C\[C@@H]2C[C@@]2(C(=O)NS(=O)(=O)C2CC2)NC(=O)[C@@H]2C[C@@H](Oc3cc(-c4nc(C(C)C)cs4)nc4c(C)c(OC)ccc34)CN2C1=O
Output: 9.15

Input: Returns the measured pEC50 for the input compound. Input: COc1ccc2c(O[C@@H]3C[C@H]4C(=O)N[C@]5(C(=O)NS(=O)(=O)C6CC6)C[C@H]5/C=C\CCCCC[C@H](NC(=O)NCc5ccc(CO)c(O)c5)C(=O)N4C3)cc(-c3nc(C(C)C)cs3)nc2c1C
Output: 7.81

Input: Returns the measured pEC50 for the input compound. Input: COc1ccc2c(O[C@@H]3C[C@H]4C(=O)N[C@]5(C(=O)NS(=O)(=O)C6CC6)C[C@H]5/C=C\CCCCC[C@H](NC(=O)N(C(C)C)C(C)C)C(=O)N4C3)cc(-c3nc(C4CC4)cs3)nc2c1C
Output: 9.15

###

Tested on: Hepatitis C virus
Test: Resistance index, ratio of EC50 for Hepatitis C virus subtype 1b harboring protease D168A mutant to EC50 for wild type Hepatitis C virus subtype 1b
Assay type: functional, Hepacivirus hominis, genotype 1b
Assignment: determine reported Ratio EC50 for the given compounds.

Input: Returns the measured Ratio EC50 for the input compound. Input: CCN(C(=O)N[C@H]1CCCCC/C=C\[C@@H]2C[C@@]2(C(=O)NS(=O)(=O)C2CC2)NC(=O)[C@@H]2C[C@@H](Oc3cc(-c4nc(C5CC5)cs4)nc4c(C)c(OC)ccc34)CN2C1=O)C(C)C
Output: <1000

Input: Returns the measured Ratio EC50 for the input compound. Input: COc1ccc2c(O[C@@H]3C[C@H]4C(=O)N[C@]5(C(=O)NS(=O)(=O)C6CC6)C[C@H]5/C=C\CCCCC[C@H](NC(=O)N(C)C(C)C)C(=O)N4C3)cc(-c3nc(C4CC4)cs3)nc2c1C
Output: <1000

Input: Returns the measured Ratio EC50 for the input compound. Input: COc1ccc2c(O[C@@H]3C[C@H]4C(=O)N[C@]5(C(=O)NS(=O)(=O)C6CC6)C[C@H]5/C=C\CCCCC[C@H](NC(=O)N(C)C(C)(C)C)C(=O)N4C3)cc(-c3nc(C4CC4)cs3)nc2c1C
Output: <1000

Input: Returns the measured Ratio EC50 for the input compound. Input: COc1ccc2c(O[C@@H]3C[C@H]4C(=O)N[C@]5(C(=O)NS(=O)(=O)C6CC6)C[C@H]5/C=C\CCCCC[C@H](NC(=O)N5CCC5)C(=O)N4C3)cc(-c3nc(C(C)C)cs3)nc2c1C
Output: <1000

Input: Returns the measured Ratio EC50 for the input compound. Input: CCC[C@H](NC(=O)[C@@H]1[C@H]2CCC[C@H]2CN1C(=O)[C@@H](NC(=O)[C@@H](NC(=O)c1cnccn1)C1CCCCC1)C(C)(C)C)C(=O)C(=O)NC1CC1
Output: 6

Input: Returns the measured Ratio EC50 for the input compound. Input: CCN(C)C(=O)N[C@H]1CCCCC/C=C\[C@@H]2C[C@@]2(C(=O)NS(=O)(=O)C2CC2)NC(=O)[C@@H]2C[C@@H](Oc3cc(-c4nc(C(C)C)cs4)nc4c(C)c(OC)ccc34)CN2C1=O
Output: <1000

Input: Returns the measured Ratio EC50 for the input compound. Input: COc1ccc2c(O[C@@H]3C[C@H]4C(=O)N[C@]5(C(=O)NS(=O)(=O)C6CC6)C[C@H]5/C=C\CCCCC[C@H](NC(=O)N(C(C)C)C(C)C)C(=O)N4C3)cc(-c3nc(C4CC4)cs3)nc2c1C
Output: <1000

Input: Returns the measured Ratio EC50 for the input compound. Input: COc1ccc2c(O[C@@H]3C[C@H]4C(=O)N[C@]5(C(=O)NS(=O)(=O)C6CC6)C[C@H]5/C=C\CCCCC[C@H](NC(=O)N5CC(F)(F)C5)C(=O)N4C3)cc(-c3nc(C(C)C)cs3)nc2c1C
Output: <1000

Input: Returns the measured Ratio EC50 for the input compound. Input: COc1ccc2c(O[C@@H]3C[C@H]4C(=O)N[C@@]5(C(=O)NS(=O)(=O)C6CC6)C[C@@H]5/C=C/CCCCN(C)C(=O)[C@@H]4C3)cc(-c3nc(C(C)C)cs3)nc2c1C
Output: 0.3

Input: Returns the measured Ratio EC50 for the input compound. Input: CC(C)(C)OC(=O)N[C@H]1CCCCC/C=C\[C@@H]2C[C@@]2(C(=O)NS(=O)(=O)C2CC2)NC(=O)[C@@H]2C[C@@H](OC(=O)N3Cc4cccc(F)c4C3)CN2C1=O
Output: 10

Values compiled from ChEMBL document CHEMBL2034968.
